These measurements were taken from ChEMBL document CHEMBL5608113.

System: Colon cancer organoid
Assay: Targeting of F14 CAF-induced therapy resistance in O23 CRC organoid-stroma co-culture. Cell viability is reported without Gefitinib.
Type: functional, Homo sapiens
Conditions: Homo sapiens, Concentration 10 uM; read-out: Cell Viability
Square brackets hold non-standard residues; d marks the D form. Peptide text beside a SMILES is read from it. Arg(Me) = CNC(=N)NCCC[C@H](N)C(=O)O; d4Pal = N[C@H](Cc1ccncc1)C(=O)O; azaGly = NNC(=O)O
Recorded metric: viability at 10 µM (%)
Answer with a number only, understood to be in %.

Study these solved cases before continuing.
Cc1nccc(COC(=O)N2C[C@@H]3[C@@H](CNC(=O)c4ccc5[nH]nnc5c4)[C@@H]3C2)n1; 161
CN1CCN(C(=O)C(C)(C)c2ccc(C(=O)Nc3cn4cc(-c5ccncc5)ccc4n3)cc2)CC1; 27.9
CC(C)(O)[C@H](F)CN1Cc2cc(NC(=O)c3cnn4cccnc34)c(N3CCOCC3)cc2C1=O; 85.8
O=C(NCc1ccccc1)c1ccc(S(=O)(=O)NCc2ccccc2)cc1; 97
CNC(=N)NCCC[C@H](NC(=O)[C@H](CC(C)C)NC(=O)NNC(=O)[C@H](Cc1ccccc1)NC(=O)[C@H](CO)NC(=O)[C@H](CC(N)=O)NC(=O)[C@@H](Cc1ccncc1)NC(=O)[C@H](N)Cc1ccc(O)cc1)C(=O)N[C@@H](Cc1ccccc1)C(N)=O [KISS1-305] (H-[dY][d4Pal]NSF[azaGly]L[Arg(Me)]F-NH2); 97.6
CN(C)C(=O)/C(C#N)=C/c1ccc(-c2nc3cnc4[nH]ccc4c3n2C2CCCCC2)o1; 96.1
CN([C@@H]1CCc2c(CC(=O)O)c3cc(S(C)(=O)=O)ccc3n2C1)S(=O)(=O)c1ccc(F)cc1 [CRTH2-negative-control]; 76.2
c1ccc([C@@H]2C[C@H]2NC2CCNCC2)cc1; 79.5
CC(=O)Nc1c(C(C)=O)c(=O)n(C)c2nc(-c3ccc(Cl)cc3Cl)c(-c3ccc(Cl)cc3)cc12; 109
N#CN1CC[C@@H](C(=O)Nc2nc3c(s2)CN(C(=O)CN=[N+]=[N-])CC3)C1; 76.5

Need viability at 10 µM, item O=C(NCCN1CCOCC1)c1ccc2c(c1)C(=O)c1ccc(Nc3ccc(F)c(NC(=O)c4ccccc4)c3)cc1CC2
108

Need viability at 10 µM, item O=C(NNS(=O)(=O)c1ccccc1F)c1cc(F)cc(-c2ccccn2)c1
121

Need viability at 10 µM, item CCOC(=O)Nc1cc(-c2ccc(C)c(NS(C)(=O)=O)c2)nn2c(C)nnc12
146

Need viability at 10 µM, item O=C(Nc1cccnn1)N1CC(C/C=C/c2cncc(Oc3ccc(C(F)(F)F)cn3)n2)C1
132

Need viability at 10 µM, item Cc1ccc(-c2cnc([C@@]3(O)CC[C@H](C(=O)O)C(C)(C)C3)s2)cc1Nc1cccc(C(F)(F)F)n1
139
